Ref: patent US20220313774A1

Assay: Trial 000015 Part 2: pharmacokinetics after multiple intranasal administrations
Format: in vivo, human
Settings: female, human, plasma, inhaled or intranasal, 400 ug, multiple i.n. doses every 3 hours, 400 μg, Dose No. 16; read-out: tmax Mean (SD)
*1 amine or outer side, *2 acyl side, *3 side chain or, on linkers, in order; H or OH if unused. Where a SMILES comes first, the peptide text is derived from it. Bridges are numbered along the chain shown (N, C = ends). [ ]: non-standard residue; d: D form. N(4-F-Bzl)Gly = O=C(O)CNCc1ccc(F)cc1; X1 = O=C(CCC[*:2])[*:1]
MEASURE_NAME: Tmax (min)
Lab book: enter the figure in min, no units written.

IN: # get_value(readout='Tmax', item= CC[C@H](C)[C@@H]1NC(=O)[C@H](Cc2ccc(O)cc2)NC(=O)CCCSC[C@@H](C(=O)N(CC(=O)N[C@@H](CC(C)C)C(=O)NCC(N)=O)Cc2ccc(F)cc2)NC(=O)[C@H](CC(N)=O)NC(=O)[C@H](CCC(N)=O)NC1=O [merotocin] (YIQNC[N(4-F-Bzl)Gly]LG-NH2; linker N-5 via X1) )
OUT: 18

###

Test: Trial 000015 Part 2: pharmacokinetics after multiple intranasal administrations
Type: in vivo, human
Conditions: female, human, plasma, inhaled or intranasal, 400 ug, multiple i.n. doses every 3 hours, 400 μg, Dose No. 1; read-out: Cmax Geom. mean (% CV)
*1 amine or outer side, *2 acyl side, *3 side chain or, on linkers, in order; H or OH if unused. Where a SMILES comes first, the peptide text is derived from it. Bridges are numbered along the chain shown (N, C = ends). [ ]: non-standard residue; d: D form. N(4-F-Bzl)Gly = O=C(O)CNCc1ccc(F)cc1; X1 = O=C(CCC[*:2])[*:1]
MEASURE_NAME: Cmax

IN: # get_value(readout='Cmax', item= CC[C@H](C)[C@@H]1NC(=O)[C@H](Cc2ccc(O)cc2)NC(=O)CCCSC[C@@H](C(=O)N(CC(=O)N[C@@H](CC(C)C)C(=O)NCC(N)=O)Cc2ccc(F)cc2)NC(=O)[C@H](CC(N)=O)NC(=O)[C@H](CCC(N)=O)NC1=O [merotocin] (YIQNC[N(4-F-Bzl)Gly]LG-NH2; linker N-5 via X1) )
OUT: 0.156 ng/mL

###

Experiment: Trial 000015 Part 2: pharmacokinetics after multiple intranasal administrations
Type: in vivo, human
Details: female, human, plasma, inhaled or intranasal, 400 ug, multiple i.n. doses every 3 hours, 400 μg, Dose No. 2; read-out: Cmax Geom. mean (% CV)
*1 amine or outer side, *2 acyl side, *3 side chain or, on linkers, in order; H or OH if unused. Where a SMILES comes first, the peptide text is derived from it. Bridges are numbered along the chain shown (N, C = ends). [ ]: non-standard residue; d: D form. N(4-F-Bzl)Gly = O=C(O)CNCc1ccc(F)cc1; X1 = O=C(CCC[*:2])[*:1]
MEASURE_NAME: Cmax (ng/mL)
Lab book: enter the figure in ng/mL, no units written.

IN: # get_value(readout='Cmax', item= CC[C@H](C)[C@@H]1NC(=O)[C@H](Cc2ccc(O)cc2)NC(=O)CCCSC[C@@H](C(=O)N(CC(=O)N[C@@H](CC(C)C)C(=O)NCC(N)=O)Cc2ccc(F)cc2)NC(=O)[C@H](CC(N)=O)NC(=O)[C@H](CCC(N)=O)NC1=O [merotocin] (YIQNC[N(4-F-Bzl)Gly]LG-NH2; linker N-5 via X1) )
OUT: 0.169

###

Test: Trial 000015 Part 2: pharmacokinetics after multiple intranasal administrations
Assay type: in vivo, human
Settings: female, human, plasma, other: intranasal, 50 ug, multiple i.n. doses every 3 hours, 50 μg, Dose No. 2; read-out: tmax Mean (SD)
*1 amine or outer side, *2 acyl side, *3 side chain or, on linkers, in order; H or OH if unused. Where a SMILES comes first, the peptide text is derived from it. Bridges are numbered along the chain shown (N, C = ends). [ ]: non-standard residue; d: D form. N(4-F-Bzl)Gly = O=C(O)CNCc1ccc(F)cc1; X1 = O=C(CCC[*:2])[*:1]
MEASURE_NAME: Tmax (min)
Lab book: enter the figure in min, no units written.

IN: # get_value(readout='Tmax', item= CC[C@H](C)[C@@H]1NC(=O)[C@H](Cc2ccc(O)cc2)NC(=O)CCCSC[C@@H](C(=O)N(CC(=O)N[C@@H](CC(C)C)C(=O)NCC(N)=O)Cc2ccc(F)cc2)NC(=O)[C@H](CC(N)=O)NC(=O)[C@H](CCC(N)=O)NC1=O [merotocin] (YIQNC[N(4-F-Bzl)Gly]LG-NH2; linker N-5 via X1) )
OUT: 20.4

###

Assay: Trial 000015 Part 2: pharmacokinetics after multiple intranasal administrations
Type: in vivo, human
Details: female, human, plasma, inhaled or intranasal, 200 ug, multiple i.n. doses every 3 hours, 200 μg, Dose No. 16; read-out: tmax Mean (SD)
*1 amine or outer side, *2 acyl side, *3 side chain or, on linkers, in order; H or OH if unused. Where a SMILES comes first, the peptide text is derived from it. Bridges are numbered along the chain shown (N, C = ends). [ ]: non-standard residue; d: D form. N(4-F-Bzl)Gly = O=C(O)CNCc1ccc(F)cc1; X1 = O=C(CCC[*:2])[*:1]
MEASURE_NAME: Tmax

IN: # get_value(readout='Tmax', item= CC[C@H](C)[C@@H]1NC(=O)[C@H](Cc2ccc(O)cc2)NC(=O)CCCSC[C@@H](C(=O)N(CC(=O)N[C@@H](CC(C)C)C(=O)NCC(N)=O)Cc2ccc(F)cc2)NC(=O)[C@H](CC(N)=O)NC(=O)[C@H](CCC(N)=O)NC1=O [merotocin] (YIQNC[N(4-F-Bzl)Gly]LG-NH2; linker N-5 via X1) )
OUT: 18.6 min

###

Assay: Trial 000015 Part 1: pharmacokinetics after single intranasal administration
Details: female, human, plasma, inhaled or intranasal, 300 ug, tmax Mean (SD), single i.n. dose 300 μg, N = 6
*1 amine or outer side, *2 acyl side, *3 side chain or, on linkers, in order; H or OH if unused. Where a SMILES comes first, the peptide text is derived from it. Bridges are numbered along the chain shown (N, C = ends). [ ]: non-standard residue; d: D form. N(4-F-Bzl)Gly = O=C(O)CNCc1ccc(F)cc1; X1 = O=C(CCC[*:2])[*:1]
MEASURE_NAME: Tmax (min)
Lab book: enter the figure in min, no units written.

IN: # get_value(readout='Tmax', item= CC[C@H](C)[C@@H]1NC(=O)[C@H](Cc2ccc(O)cc2)NC(=O)CCCSC[C@@H](C(=O)N(CC(=O)N[C@@H](CC(C)C)C(=O)NCC(N)=O)Cc2ccc(F)cc2)NC(=O)[C@H](CC(N)=O)NC(=O)[C@H](CCC(N)=O)NC1=O [merotocin] (YIQNC[N(4-F-Bzl)Gly]LG-NH2; linker N-5 via X1) )
OUT: 12

###

Assay: Trial 000015 Part 3: pharmacokinetics, single intranasal and single intravenous cross-over
Conditions: female, human, plasma, iv, 20 ug, t1/2 Harmonic mean, cross-over, 20 μg i.v. infusion over 25 minutes, N = 6
*1 amine or outer side, *2 acyl side, *3 side chain or, on linkers, in order; H or OH if unused. Where a SMILES comes first, the peptide text is derived from it. Bridges are numbered along the chain shown (N, C = ends). [ ]: non-standard residue; d: D form. N(4-F-Bzl)Gly = O=C(O)CNCc1ccc(F)cc1; X1 = O=C(CCC[*:2])[*:1]
MEASURE_NAME: half-life (min)
Lab book: enter the figure in min, no units written.

IN: # get_value(readout='half-life', item= CC[C@H](C)[C@@H]1NC(=O)[C@H](Cc2ccc(O)cc2)NC(=O)CCCSC[C@@H](C(=O)N(CC(=O)N[C@@H](CC(C)C)C(=O)NCC(N)=O)Cc2ccc(F)cc2)NC(=O)[C@H](CC(N)=O)NC(=O)[C@H](CCC(N)=O)NC1=O [merotocin] (YIQNC[N(4-F-Bzl)Gly]LG-NH2; linker N-5 via X1) )
OUT: 10.2

###

Assay: Trial 000015 Part 1: pharmacokinetics after single intranasal administration
Details: female, human, plasma, inhaled or intranasal, 200 ug, AUCt Median, single i.n. dose 200 μg, N = 6
*1 amine or outer side, *2 acyl side, *3 side chain or, on linkers, in order; H or OH if unused. Where a SMILES comes first, the peptide text is derived from it. Bridges are numbered along the chain shown (N, C = ends). [ ]: non-standard residue; d: D form. N(4-F-Bzl)Gly = O=C(O)CNCc1ccc(F)cc1; X1 = O=C(CCC[*:2])[*:1]
MEASURE_NAME: AUC(0-t) (ng·h/mL)
Lab book: enter the figure in ng·h/mL, no units written.

IN: # get_value(readout='AUC(0-t)', item= CC[C@H](C)[C@@H]1NC(=O)[C@H](Cc2ccc(O)cc2)NC(=O)CCCSC[C@@H](C(=O)N(CC(=O)N[C@@H](CC(C)C)C(=O)NCC(N)=O)Cc2ccc(F)cc2)NC(=O)[C@H](CC(N)=O)NC(=O)[C@H](CCC(N)=O)NC1=O [merotocin] (YIQNC[N(4-F-Bzl)Gly]LG-NH2; linker N-5 via X1) )
OUT: 0.0525
